percentage inhibition of CAMK1 for assorted compounds
Measured target: CAMK1 (Homo sapiens (Human), UniProt Q14012)
Protocol notes: CAMK1 kinase selectivity assay
Assay type: biochemical
Test parameters: 1 μM inhibitor concentration
Please reply with the bare figure in percentage and do not write the unit itself.

entry_smiles=c1cc2[nH]nc3c2c(n1)N(C1CCCC1)CCC3 experimental_value=0

With those in mind, consider the next compound.
Query: Give the value of percentage inhibition of CAMK1 reported for the following: CC(C)n1ncc2c1CN(C1CCN(C)CC1)c1nccc3[nH]nc-2c13
Result: 45

###

percentage inhibition of ROCK2 for assorted molecules
Measured target: ROCK2 (Homo sapiens (Human))
Sequence (O75116 whole entry, species assumed): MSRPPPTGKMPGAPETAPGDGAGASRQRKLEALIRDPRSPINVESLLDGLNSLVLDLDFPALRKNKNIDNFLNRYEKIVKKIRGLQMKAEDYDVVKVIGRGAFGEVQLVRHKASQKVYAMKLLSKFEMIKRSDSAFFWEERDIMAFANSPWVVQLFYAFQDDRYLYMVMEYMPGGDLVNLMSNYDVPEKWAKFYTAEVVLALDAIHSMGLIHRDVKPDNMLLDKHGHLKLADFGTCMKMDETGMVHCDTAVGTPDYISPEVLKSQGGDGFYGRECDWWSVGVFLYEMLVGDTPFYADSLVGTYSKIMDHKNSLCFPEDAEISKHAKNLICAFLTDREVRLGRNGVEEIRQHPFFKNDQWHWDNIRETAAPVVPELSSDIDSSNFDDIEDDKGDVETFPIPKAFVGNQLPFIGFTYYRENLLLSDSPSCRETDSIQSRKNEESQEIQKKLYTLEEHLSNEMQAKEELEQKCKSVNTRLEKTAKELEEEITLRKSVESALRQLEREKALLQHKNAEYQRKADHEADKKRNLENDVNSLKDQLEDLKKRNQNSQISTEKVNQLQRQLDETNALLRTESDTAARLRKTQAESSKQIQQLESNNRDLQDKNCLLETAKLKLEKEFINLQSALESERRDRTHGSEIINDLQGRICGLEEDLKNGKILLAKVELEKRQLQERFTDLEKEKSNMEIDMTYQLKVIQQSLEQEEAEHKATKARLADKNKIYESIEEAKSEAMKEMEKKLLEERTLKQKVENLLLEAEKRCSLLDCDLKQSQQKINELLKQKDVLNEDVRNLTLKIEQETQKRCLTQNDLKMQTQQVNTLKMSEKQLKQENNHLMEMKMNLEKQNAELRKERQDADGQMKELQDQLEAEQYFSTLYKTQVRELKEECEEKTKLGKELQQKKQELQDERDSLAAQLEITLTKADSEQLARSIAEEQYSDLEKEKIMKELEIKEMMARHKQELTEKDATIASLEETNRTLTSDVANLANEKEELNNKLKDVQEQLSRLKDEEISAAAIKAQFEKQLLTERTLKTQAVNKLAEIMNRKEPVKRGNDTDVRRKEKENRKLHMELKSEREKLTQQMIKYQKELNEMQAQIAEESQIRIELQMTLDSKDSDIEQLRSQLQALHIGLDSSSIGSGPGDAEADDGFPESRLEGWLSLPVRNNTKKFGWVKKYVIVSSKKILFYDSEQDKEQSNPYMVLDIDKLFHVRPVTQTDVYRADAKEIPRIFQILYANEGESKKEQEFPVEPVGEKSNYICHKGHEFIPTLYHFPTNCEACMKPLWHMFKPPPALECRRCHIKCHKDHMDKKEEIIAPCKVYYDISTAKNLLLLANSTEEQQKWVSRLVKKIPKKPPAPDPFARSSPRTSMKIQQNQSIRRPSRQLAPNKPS
Protocol notes: ROCK2 kinase selectivity assay
Type: biochemical
Test parameters: 1 μM inhibitor concentration
Please reply with the bare figure in percentage and do not write the unit itself.

entry_smiles=CC(C)n1ncc2c1CN(C1CCN(C)CC1)c1nccc3[nH]nc-2c13 experimental_value=21

Query: Give the value of percentage inhibition of ROCK2 reported for the following: c1cc2[nH]nc3c2c(n1)N(C1CCCC1)CCC3
Result: 0

Query: Give the value of percentage inhibition of ROCK2 reported for the following: CN1CCC(N2Cc3ccccc3-c3n[nH]c4ccnc2c34)CC1
Result: 14

Query: Give the value of percentage inhibition of ROCK2 reported for the following: c1cc2[nH]nc3c2c(n1)N(C1CCC1)CCC3
Result: 5

Query: Give the value of percentage inhibition of ROCK2 reported for the following: c1cc2[nH]nc3c2c(n1)N(C1CCOCC1)CCC3
Result: 11
